system: SN12C renal; assay: NCI tumour cell line growth inhibition, 48 h
TGI for assorted compounds
Note: unit µM is implicit; provide only the numeric part.

Check out these entries, answers already filled in.
COMPOUND | TARGET_SYSTEM | TGI, µM
O=C1CSC(c2ccc(Cl)cc2)N1c1ccc(Oc2ccc(Cl)cc2)c(Cl)c1 (configuration not stated) | SN12C renal | 38.6
CC(C)=CCc1c2c(c3occ(-c4ccc(O)cc4)c(=O)c3c1O)CC(C(C)(C)O)O2 (configuration not stated) | SN12C renal | 38.5

Kindly review the next compound as well.
**Query** SN12C renal / TGI / FC(F)(F)c1cccc(Nc2nc(-c3ccccc3)nc3ncccc23)c1 : value?
**Result** 64.3
